Where these numbers come from: the Immune Epitope Database (IEDB)

Items are presented alongside their recorded Kd.
# measurementTarget: HLA-A*33:01
# test: IEDB peptide-MHC binding, purified MHC/competitive/radioactivity; filed as Kd, often an IC50 or EC50 that approximates it; bounds were set here for any values at or beyond the usual limits of such assays
# conditionLabel: source organism: Dengue virus 3 Martinique/1243/1999
Express your answer in nM, writing the number without its unit.

seq=VFKEKVDTR observedproperty=Kd observed=63.1
seq=TTETPTWNR observedproperty=Kd observed=1.28

Problem: Annotate the sequence EFGKAKGSR with its measured Kd.
Result: 125

Problem: Please report the measured Kd for NMLKRVRNR
Result: 109

Problem: Using known records, supply Kd for NMLSIINKR
Result: 23

----------
# measurementTarget: HLA-B*51:01
# test: IEDB peptide-MHC binding, purified MHC/competitive/fluorescence; filed as Kd, often an IC50 or EC50 that approximates it; bounds were set here for any values at or beyond the usual limits of such assays
# conditionLabel: source organism: Orthohantavirus seoulense
pKd: −log10 of the molar value.
observedProperty: pKd

Problem: Answer with reported pKd of KPKHLYVSM
Result: ≤ 4.70

----------
# measurementTarget: HLA-B*27:05
# test: IEDB peptide-MHC binding, purified MHC/direct/fluorescence; filed as Kd, often an IC50 or EC50 that approximates it; bounds were set here for any values at or beyond the usual limits of such assays
# conditionLabel: source organism: Mammarenavirus lassaense
observedProperty: Kd

Problem: # return recorded Kd for entry ILNHKFCNL
Result: ≥ 20 µM

----------
# measurementTarget: HLA-A*24:03
# test: IEDB peptide-MHC binding, purified MHC/direct/fluorescence; filed as Kd, often an IC50 or EC50 that approximates it; bounds were set here for any values at or beyond the usual limits of such assays
# conditionLabel: source organism: Corynebacterium glutamicum
observedProperty: pKd
A value of pKd is the negative decimal logarithm of a concentration given in moles per litre.

Problem: Read off the recorded pKd for IVAWTRTAT
Result: 4.88

----------
# measurementTarget: HLA-B*54:01
# test: IEDB peptide-MHC binding, purified MHC/competitive/radioactivity; filed as Kd, often an IC50 or EC50 that approximates it; bounds were set here for any values at or beyond the usual limits of such assays
# conditionLabel: source organism: Lymphocytic choriomeningitis virus (strain Armstrong)
observedProperty: Kd
Phrase the answer as number then unit, nothing more needed.

seq=HPIMYYTKF observedproperty=Kd observed="3770 nM"

Now take the following sequence into account.
Problem: Hello, please tell me recorded Kd for this one: MPEWANFKF
Result: 1370 nM

----------
# measurementTarget: HLA-B*18:01
# test: IEDB peptide-MHC binding, purified MHC/direct/fluorescence; filed as Kd, often an IC50 or EC50 that approximates it; bounds were set here for any values at or beyond the usual limits of such assays
# conditionLabel: source organism: Ravn virus - Ravn, Kenya, 1987
observedProperty: Kd

Problem: # return recorded Kd for input NLFDWMHFL
Result: ≥ 20 µM

----------
# measurementTarget: HLA-B*08:01
# test: IEDB peptide-MHC binding, purified MHC/competitive/fluorescence; bounds were set here for any values at or beyond the usual limits of such assays
# conditionLabel: source organism: Zaire ebolavirus
observedProperty: pIC50
// pIC50 is dimensionless: -log10 of concentration (M)

seq=ERGVRLHPL observed=5.05

Let us move to another entry and its pIC50.
Problem: Return pIC50 for the following sequence: VMNHKNKFM
Result: 5.08

----------
Quick list: Kd per entry.
# measurementTarget: HLA-B*58:01
# test: IEDB peptide-MHC binding, purified MHC/direct/fluorescence; filed as Kd, often an IC50 or EC50 that approximates it; bounds were set here for any values at or beyond the usual limits of such assays
# conditionLabel: source organism: Corynebacterium glutamicum

Problem: Fill in reported Kd for this entry: AEHDPWWAV
Result: ≥ 20 µM

Problem: Identify Kd associated with the sequence IVAWTRTAT
Result: ≥ 20 µM

----------
# measurementTarget: HLA-A*24:03
# test: IEDB peptide-MHC binding, purified MHC/competitive/fluorescence; filed as Kd, often an IC50 or EC50 that approximates it; bounds were set here for any values at or beyond the usual limits of such assays
# conditionLabel: source organism: Vibrio parahaemolyticus K5030
pKd: −log10 of the molar value.
observedProperty: pKd

Problem: Report measured pKd; entry is WLGDVWQEK
Result: ≤ 4.70

----------
# measurementTarget: HLA-B*39:01
# test: IEDB peptide-MHC binding, purified MHC/competitive/fluorescence; filed as Kd, often an IC50 or EC50 that approximates it; bounds were set here for any values at or beyond the usual limits of such assays
# conditionLabel: source organism: Entamoeba histolytica HM-1:IMSS
pKd: −log10 of the molar value.
observedProperty: pKd

Problem: Specify measured pKd for LICYQIEYI .
Result: ≤ 4.70

----------
# measurementTarget: HLA-A*26:01
# test: IEDB peptide-MHC binding, purified MHC/competitive/fluorescence; filed as Kd, often an IC50 or EC50 that approximates it; bounds were set here for any values at or beyond the usual limits of such assays
# conditionLabel: source organism: Lechiguanas virus
pKd: −log10 of the molar value.
observedProperty: pKd

Problem: Please report the measured pKd for LQPSDTLLF tested on HLA-A*26:01.
Result: ≤ 4.70

----------
# measurementTarget: HLA-B*15:01
# test: IEDB peptide-MHC binding, purified MHC/direct/fluorescence; filed as Kd, often an IC50 or EC50 that approximates it; bounds were set here for any values at or beyond the usual limits of such assays
# conditionLabel: source organism: Orthohantavirus seoulense
observedProperty: Kd

Problem: In one line, give reported Kd of the entry KPKHLYVSM .
Result: ≥ 20 µM

----------
# measurementTarget: HLA-B*51:01
# test: IEDB peptide-MHC binding, purified MHC/competitive/fluorescence; filed as Kd, often an IC50 or EC50 that approximates it; bounds were set here for any values at or beyond the usual limits of such assays
# conditionLabel: source organism: Escherichia coli 536
observedProperty: Kd

Problem: Name the recorded Kd of the sequence listed here: HPASRLFPF
Result: ≥ 20 µM

----------
# measurementTarget: HLA-B*44:03
# test: IEDB peptide-MHC binding, purified MHC/competitive/radioactivity; filed as Kd, often an IC50 or EC50 that approximates it; bounds were set here for any values at or beyond the usual limits of such assays
# conditionLabel: source organism: Mammarenavirus brazilense
observedProperty: Kd (µM)
Output spec: scalar in µM, unitless text.

Problem: Provide Kd, recorded with HLA-B*44:03, of GDNEIEYGF
Result: 17

----------
# measurementTarget: HLA-A*24:03
# test: IEDB peptide-MHC binding, purified MHC/direct/fluorescence; filed as Kd, often an IC50 or EC50 that approximates it; bounds were set here for any values at or beyond the usual limits of such assays
# conditionLabel: source organism: West Nile virus
observedProperty: Kd (nM)
Respond with the bare value in nM.

Problem: Give Kd for the following sequence: VYRIMTRGL
Result: 580

----------
# measurementTarget: HLA-B*07:02
# test: IEDB peptide-MHC binding, purified MHC/direct/fluorescence; filed as Kd, often an IC50 or EC50 that approximates it; bounds were set here for any values at or beyond the usual limits of such assays
# conditionLabel: source organism: Giardia lamblia ATCC 50803
pKd: −log10 of the molar value.
# Lookup of reported pKd keyed by entry

Solved cases (2 shown):
seq=ISYTYNDNW measurementtarget=HLA-B*07:02 observed="≤ 4.70"
seq=ITFHNQRDF measurementtarget=HLA-B*07:02 observed="≤ 4.70"

Now look at this entry.
Problem: Query pKd for GPRRAAWRI
Result: 7.21

----------
# measurementTarget: HLA-A*02:11
# test: IEDB peptide-MHC binding, purified MHC/direct/fluorescence; filed as Kd, often an IC50 or EC50 that approximates it; bounds were set here for any values at or beyond the usual limits of such assays
# conditionLabel: source organism: Zaire ebolavirus
observedProperty: Kd

seq=ATEDPSSGY measurementtarget=HLA-A*02:11 observedproperty=Kd observed="≥ 20 µM"

Continue with the next sequence.
Problem: Look up and report Kd, with HLA-A*02:11 as system, for TGIVSSMHY
Result: ≥ 20 µM

----------
# measurementTarget: HLA-B*15:17
# test: IEDB peptide-MHC binding, purified MHC/competitive/fluorescence; filed as Kd, often an IC50 or EC50 that approximates it; bounds were set here for any values at or beyond the usual limits of such assays
# conditionLabel: source organism: Bos taurus
pKd: −log10 of the molar value.
observedProperty: pKd

Problem: Item KLGEGFKSL : provide pKd
Result: ≤ 4.70

----------
# measurementTarget: HLA-B*15:17
# test: IEDB peptide-MHC binding, purified MHC/direct/fluorescence; filed as Kd, often an IC50 or EC50 that approximates it; bounds were set here for any values at or beyond the usual limits of such assays
# conditionLabel: source organism: Brucella melitensis
observedProperty: Kd (nM)
Please respond with the number in nM and leave the unit unwritten.

Problem: Give a short answer stating reported Kd for IAASNLEQF .
Result: 22.6
